Conditions: in isopropanol, 307.95 K
experimental.readout: solubility (mole fraction)

>  <input.smiles>
CC(=O)S[C@@H]1CC2=CC(=O)CC[C@]2(C)[C@H]2CC[C@@]3(C)[C@@H](CC[C@@]34CCC(=O)O4)[C@H]12

>  <endpoint.value>
0.00445

$$$$

* * *

Settings: in n-propanol, 288.35 K

>  <input.smiles>
CC(=O)S[C@@H]1CC2=CC(=O)CC[C@]2(C)[C@H]2CC[C@@]3(C)[C@@H](CC[C@@]34CCC(=O)O4)[C@H]12

>  <solubility (mole fraction)>
0.00326

$$$$

* * *

Settings: in ethyl acetate, 293.45 K

>  <input.smiles>
CC(=O)S[C@@H]1CC2=CC(=O)CC[C@]2(C)[C@H]2CC[C@@]3(C)[C@@H](CC[C@@]34CCC(=O)O4)[C@H]12

>  <solubility (mole fraction)>
0.0246

$$$$
